%Inh overview
- System: p38-gamma;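 note: KINOMEscan kinase panel screen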
- Construct: gene MAPK12
- conditionInfo: concentration: 1 μM, replicates: in singlicate; n = 1

{"columns": ["compound", "%Inh [%]"],
 "data": [
  ["Cc1cccc(-c2nc(-c3ccc(S(C)(=O)=O)cc3)sc2-c2ccnc(NCCc3ccccc3)c2)c1", 16],
  ["Cc1ccc(C(=O)Nc2ccc(Nc3ccnc4cc(-c5ccccn5)ccc34)cc2O)cc1.Cl", 11],
  ["Cc1cc(N2Cc3ccccc3C2)nc(Nc2ccc(S(=O)(=O)N3CCOCC3)cc2)n1.Cl", 3],
  ["COc1ccc(CNC(=O)NC2CCN(c3ccnc(Nc4cc(OC)c(OC)c(OC)c4)n3)C2)cc1 (stereo not shown)", 0]
]}
